- study-target: Nuclear receptor subfamily 1 group I member 2 (Homo sapiens) (UniProt O75469)
- Sequence (O75469 whole entry, looked up): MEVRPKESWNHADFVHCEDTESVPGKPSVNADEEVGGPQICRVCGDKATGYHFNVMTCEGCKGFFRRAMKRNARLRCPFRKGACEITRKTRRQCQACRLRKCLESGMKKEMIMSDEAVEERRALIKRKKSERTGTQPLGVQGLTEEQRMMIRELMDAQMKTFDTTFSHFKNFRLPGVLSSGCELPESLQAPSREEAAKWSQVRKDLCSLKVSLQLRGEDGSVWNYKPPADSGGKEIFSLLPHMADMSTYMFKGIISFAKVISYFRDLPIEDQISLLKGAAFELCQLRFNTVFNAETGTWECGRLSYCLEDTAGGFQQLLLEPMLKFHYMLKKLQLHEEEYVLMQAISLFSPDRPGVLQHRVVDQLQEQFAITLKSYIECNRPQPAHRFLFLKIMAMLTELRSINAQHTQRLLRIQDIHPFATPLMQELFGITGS
- measurement-notes: Human pregnane X receptor (PXR) small molecule agonists, qHTS assay (AID 1346982); further: nearly all actives have a fitted effect of over 35% in size
- experimental-parameters: PXR-Luc HepG2, CYP3A4 luciferase reporter, 24 h; series mostly up to 92.4 µM
Results filed as inconclusive are left out. Activity calls are given as the source filed them. The call rests on the fitted dose curve; in most records, active means well fitted activation curve with a large enough effect in the repeat runs; inconclusive means weak or mixed curves; inactive means no such curve, though single readings can be large or run the other way.
Answer with one of the outcomes given here: active, inactive

CCCCCCCCCc1ccc(OCCOCCO)cc1: active
CCCCC: active
CCc1cc(C2=C(C(=O)O)N(c3ccccc3C(F)(F)F)S(=O)(=O)c3ccccc32)cc2c1OCO2: inactive

Prompt: I'd appreciate the recorded outcome for C=C(C)C(=O)OCC from this test.
Completion: inactive

Prompt: I'd appreciate the recorded outcome for CCCCNc1ccc(C(=O)OCCOCCOCCOCCOCCOCCOCCOCCOCCOC)cc1 from this test.
Completion: inactive

Prompt: I'd appreciate the recorded outcome for C#Cc1cccc(Nc2ncnc3cc(OCCOC)c(OCCOC)cc23)c1 from this test.
Completion: active

Prompt: I'd appreciate the recorded outcome for Cc1ccc(C(C)OC(=O)C2(C)CCC(C(=O)O)C2(C)C)cc1 (configuration not stated) from this test.
Completion: inactive

Prompt: I'd appreciate the recorded outcome for CN(C)C(=O)NC1(c2ccccc2)CCN(CC[C@@]2(c3ccc(F)c(F)c3)CN(C(=O)c3ccccc3)CCO2)CC1 from this test.
Completion: active
